system: PC-3M; test: MTT cytotoxic activity assay, PC-3M; assay type: cell-based; settings: Homo sapiens, read-out: IC50 PC-3M (text), 48 h

molecule: CC(C)(C)OC(=O)N[C@H](Cc1ccccc1Cl)C(=O)Oc1ccc(/C=C/C(=O)c2ccc(O)cc2O)cc1 [Compound 17]
result_units: µM
IC50: 37.4

====

test system: PC-3M; experiment: MTT cytotoxic activity assay, PC-3M; assay type: cell-based; conditions: Homo sapiens, read-out: IC50 PC-3M, 48 h

molecule: CC(C)(C)OC(=O)NC(C(=O)Oc1ccc(/C=C/C(=O)c2ccc(O)cc2O)cc1)C1CCCCC1 (stereo not shown)
IC50: 27 µM

molecule: CC(C)(C)OC(=O)N[C@H](Cc1ccccc1Cl)C(=O)Oc1ccc(/C=C/C(=O)c2ccc(O)cc2O)cc1
IC50: 38.1 µM

molecule: Cc1ccc(C[C@@H](NC(=O)OC(C)(C)C)C(=O)Oc2ccc(/C=C/C(=O)c3ccc(O)cc3O)cc2)cc1
IC50: 83.6 µM

molecule: C[C@H](NC(=O)OC(C)(C)C)C(=O)Oc1ccc(C(=O)/C=C/c2ccc(OC(=O)[C@@H](C)NC(=O)OC(C)(C)C)cc2)c(O)c1
IC50: > 200 µM

====

Experiment: MTT cytotoxicity on normal cells
Format: cell-based
Details: human, HUCEC cells (human normal cervical epithelial cells)
Protocol: MCF-7, Hela, and HUCEC were cultured in DMEM (Beijing Solarbio) containing 10% FBS, 100 U/mL penicillin, and […] streptomycin at 37 °C and 5% CO2. […] The cells were inoculated into 96-well plates at a density of 5 × 10^3 cells/well. […] The absorbance was measured at 490 nm with an enzymoleter.

molecule: CC(C)(C)OC(=O)NC(C(=O)Oc1ccc(/C=C/C(=O)c2ccc(O)cc2O)cc1)C1CCCCC1 (stereo not shown)
IC50 at 48 h: > 200 µM
